Reported values of kon for individual entries
- assayed-target: T1, Canine IL-31RA ECD-10His (canine, biotin-labeled in the Octet assay (site not stated))
- T1 construct: The ELISA and Octet protocols say only 'IL-31RA' or 'canine IL-31RA'; also called cIL-31RA; canine IL-31 receptor alpha extracellular domain, HIS-tagged
- T1 chain: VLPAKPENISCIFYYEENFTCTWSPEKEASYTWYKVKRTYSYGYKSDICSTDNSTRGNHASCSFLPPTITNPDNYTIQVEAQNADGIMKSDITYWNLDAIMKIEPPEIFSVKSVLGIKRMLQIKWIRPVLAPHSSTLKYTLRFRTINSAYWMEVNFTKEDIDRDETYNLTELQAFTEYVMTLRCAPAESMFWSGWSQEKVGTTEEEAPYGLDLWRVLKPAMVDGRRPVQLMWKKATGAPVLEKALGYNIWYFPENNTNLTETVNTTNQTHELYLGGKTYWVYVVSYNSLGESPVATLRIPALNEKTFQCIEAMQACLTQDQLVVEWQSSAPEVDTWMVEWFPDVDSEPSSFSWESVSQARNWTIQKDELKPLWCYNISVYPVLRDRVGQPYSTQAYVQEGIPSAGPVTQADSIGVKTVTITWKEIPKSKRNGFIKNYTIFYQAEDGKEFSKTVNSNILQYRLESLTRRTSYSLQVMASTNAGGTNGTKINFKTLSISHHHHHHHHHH
- test: BLI (Octet), biotin-labeled canine IL-31RA on SA biosensors
Could you give me the number in M⁻¹ s⁻¹? Just the number is fine.

Recorded kon, per entry:
binder	u	kon
c218D9VH4VL2 (antibody, V domains shown, Caninized antibody; chains tied by name to c218D9VH4-cIgGBm and c218D9VL2-cCK; also called c218D9VH4L2) VH: EVTLQESGPGLVKPSQTLSLTCSFSGFSLSTFGRGVGWIRQRPGRGLEWMGHIWWDDDKYYNPALKSRLSITKDTAKNQVFLQLSSMTTEDTAVYYCARIAGGLRRAPYAMDSWGQGTLVTVSS VL: DIVMTQTPLSLSVSPGETASISCRASENIYSSLAWFRQKPGQSPQLLIYAATNLADGVPDRFSGSGSGTDFTLRISRVEADDTGVYYCQHFRDTPPTFGQGTKLEIKR	M⁻¹ s⁻¹	541000
c51F8VH3VL6 (antibody, V domains shown, Caninized antibody; chains tied by name to c51F8VH3-cIgGBm and c51F8VL6-cCK; also called c51F8VH3L6) VH: EVQLVQSGAEVKKPGASVKVSCTASGFNIKNTFIHWVRQAPGAGLDWIGRIDPANGNTKYAPKFQGRATLTADTSTNTAYMQLSSLRAGDIAVYYCARYYYVSSYFDVWGQGTLVTVSS VL: DIVMTQTPLSLSVSPGETASISCKASQSVTNDVTWFRQKPGQSPQLLIYSASNRYTGVPDRFSGSGSGTDFTLRISTVEADDTGVYYCQQDYSSPWTFGQGTKLEIKR	M⁻¹ s⁻¹	428000
c218D9VH3VL3 (antibody, V domains shown, Caninized antibody; chains tied by name to c218D9VH3-cIgGBm and c218D9VL3-cCK; also called c218D9VH3L3) VH: EVTLQESGPGLVKPSQTLSLTCSFSGFSLSTFGRGVGWIRQRPGRGLEWMGHIWWDDDKYYNPALKSRLSITKDTAKNQFSLQLSSMTTEDTAVYYCARIAGGLRRAPYAMDSWGQGTLVTVSS VL: DIVMTQTPLSLSVSPGETASISCRASENIYSSLAWFRQKPGQSPQLLVYAATNLADGVPDRFSGSGSGTDYTLRISRVEADDTGVYYCQHFRDTPPTFGQGTKLEIKR	M⁻¹ s⁻¹	661000

// c51F8VH3VL7 (antibody, V domains shown, Caninized antibody; chains tied by name to c51F8VH3-cIgGBm and c51F8VL7-cCK; also called c51F8VH3L7) VH: EVQLVQSGAEVKKPGASVKVSCTASGFNIKNTFIHWVRQAPGAGLDWIGRIDPANGNTKYAPKFQGRATLTADTSTNTAYMQLSSLRAGDIAVYYCARYYYVSSYFDVWGQGTLVTVSS VL: DIVMTQTPLSLSVSPGETASISCKASQSVTNDVTWFRQKPGQSPKLLIYSASNRYTGVPDRFSGSGSGTDFTLRISTVEADDTGVYYCQQDYSSPWTFGQGTKLEIKR : kon value = 401000

Entry under test: c218D9VH3VL2 (antibody, V domains shown, Caninized antibody; chains tied by name to c218D9VH3-cIgGBm and c218D9VL2-cCK; also called c218D9VH3L2) VH: EVTLQESGPGLVKPSQTLSLTCSFSGFSLSTFGRGVGWIRQRPGRGLEWMGHIWWDDDKYYNPALKSRLSITKDTAKNQFSLQLSSMTTEDTAVYYCARIAGGLRRAPYAMDSWGQGTLVTVSS VL: DIVMTQTPLSLSVSPGETASISCRASENIYSSLAWFRQKPGQSPQLLIYAATNLADGVPDRFSGSGSGTDFTLRISRVEADDTGVYYCQHFRDTPPTFGQGTKLEIKR . Its kon was 641000

This collection of values is drawn from patent US20250340654A1.
